Each recorded value in this set is attributed to the supplement of paper PMC10567573.

Property: protein stability index; scope: individual sequences
# procedure.text: protein stability index of a GFP-peptide fusion (GPS, HEK-293T) (PSI 1-6); higher = more stable;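 further: 24-mer peptide tiles fused after GFP, lentivirally expressed, FACS-sorted into six equal bins by GFP/DsRed ratio, decoded by Illumina sequencing, PSI is the read-weighted mean bin number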
# test.context: treatment: DMSO; c terminus: a fixed tail appended

// query protein stability index value for entry TPPASPPPSVLISKNEVGIFTTPN [KMT2E]
4.03

Same question for AGPYLLNGSYLELSSDRVANSSSE [ADAMTSL2] please.
4.09

And what about the sequence DAEMELRAKEEERLNKLRLESEGS [HACD3] ?
5.56

Now try KSKWDEEWDKNKSAFPFSDKLGEL [CLINT1] .
3.82

###

# procedure.text: protein stability index of a GFP-peptide fusion (GPS, HEK-293T) (PSI 1-6); higher = more stable
# test.context: treatment: MLN4924 1 uM, 8 h; c terminus: a fixed tail appended
Reported protein stability index is given for each of the following sequences.
Give the figure by itself; no unit, no explanation.

REEMKLKECVSILPRKESPSVRSS [TNFSF13B]	4.73
CLLTYGMTSSSAYYYTKVMSELFL [PKD2L1]	2.83
GFGVLRLDADAAQRVVYLEGCGPP [TSPAN10]	2.65
ELRDLQVSVESQQVQQVEVEATVK [PRPH]	4.96
KQPPWEFLQVLEPGARGLWKPPDI [SPAG8]	2.32

Reported protein stability index for SSVTAAVSGLLVGYELGIISGALL [SLC2A12] : what is it?
2.82

# repeat for CHGMSSQLVRYSADGLLQLGPLGS [GALNT9]
2.12

Subsequent entry: DVELLQDLGDIVARSESVLLHMPQ [TRIM43]
3.25

Repeat for the following sequence: LRRGASVNRTTRTNSTPLRAACFD [FEM1A]
3.87

Further, for RKYFADLAMNYKHGDPIPKVEFTE [TPH1] ?
3.3
